Where these numbers come from: patent USRE39088E1

Test system: IL-8
Procedure Details: Suppression of production of inflammatory cytokines: IL-8 in LPS-stimulated human peripheral blood monocytes (ELISA)
Format: cell-based
Recorded Conditions: supernatant 20 hours after LPS
Below, each entry is listed alongside its reported IC50.
Write the answer as a number in µM, unit excluded.

Value of measured IC50 for the entry Cl.NCCCCOc1c(Cl)cc(C(=O)N[C@@H](Cc2ccccc2)C(=O)Nc2ccccc2)c(O)c1Cl [Example 138, hydrochloride] : 1

The molecule identified as CCOC(=O)[C@H](Cc1ccccc1)NC(=O)c1ccc(-c2noc(CCCCNC)n2)cc1O.Cl [Example 148, hydrochloride] registered its IC50 at 4

Quick note, IC50 for CNCCCCOc1c(Cl)cc(C(=O)N[C@@H](Cc2ccccc2)C(=O)NO)c(O)c1Cl landed at 3
